Biological target: human muscarinic M4 receptor (Homo sapiens, UniProt P08173)
Construct: expressed in transfected cells
Sequence (P08173 whole entry): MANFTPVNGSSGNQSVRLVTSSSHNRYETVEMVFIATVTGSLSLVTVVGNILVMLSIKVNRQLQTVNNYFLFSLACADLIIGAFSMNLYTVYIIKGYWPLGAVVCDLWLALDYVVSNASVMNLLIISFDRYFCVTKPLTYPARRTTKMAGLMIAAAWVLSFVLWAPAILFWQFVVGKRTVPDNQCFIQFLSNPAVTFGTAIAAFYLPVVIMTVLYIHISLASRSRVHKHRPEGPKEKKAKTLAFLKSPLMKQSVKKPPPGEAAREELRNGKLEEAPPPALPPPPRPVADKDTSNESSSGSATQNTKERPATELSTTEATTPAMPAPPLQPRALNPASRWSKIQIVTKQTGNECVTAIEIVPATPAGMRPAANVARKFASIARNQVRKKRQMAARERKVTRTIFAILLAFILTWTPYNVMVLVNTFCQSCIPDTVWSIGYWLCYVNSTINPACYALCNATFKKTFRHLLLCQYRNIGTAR
Assay: Alphascreen Surefire phospho-ERK1/2 functional assay, M4
Format: cell-based
Settings: CHO cells stably expressing human M4; phospho-ERK1/2; * = variable results; read-out: pEC50 M4 (converted)

{"columns": ["compound", "EC50"],
 "data": [
  ["CCOC(=O)N1CCC2(CC(N3CCC(n4ccc(C)n4)CC3)C2)C1 (single isomer, unassigned) [1-44 Isomer 2]", "6.31 nM"],
  ["CCOC(=O)N1CCC2(CC(N3CCC([C@@H]4CCCN4C(=O)NC4(C)CCC4)CC3)C2)C1 (single isomer, unassigned) [2-35 Isomer 2]", "15.8 nM"],
  ["CNC(=O)N1CCC[C@H]1C1CCN(C2CC3(CCN(C(=O)OC)C3)C2)CC1 (single isomer, unassigned) [2-15 Isomer 2]", "15.8 nM"]
]}

---

Molecular target: UniProtKB P11229
Sequence (P11229 whole entry): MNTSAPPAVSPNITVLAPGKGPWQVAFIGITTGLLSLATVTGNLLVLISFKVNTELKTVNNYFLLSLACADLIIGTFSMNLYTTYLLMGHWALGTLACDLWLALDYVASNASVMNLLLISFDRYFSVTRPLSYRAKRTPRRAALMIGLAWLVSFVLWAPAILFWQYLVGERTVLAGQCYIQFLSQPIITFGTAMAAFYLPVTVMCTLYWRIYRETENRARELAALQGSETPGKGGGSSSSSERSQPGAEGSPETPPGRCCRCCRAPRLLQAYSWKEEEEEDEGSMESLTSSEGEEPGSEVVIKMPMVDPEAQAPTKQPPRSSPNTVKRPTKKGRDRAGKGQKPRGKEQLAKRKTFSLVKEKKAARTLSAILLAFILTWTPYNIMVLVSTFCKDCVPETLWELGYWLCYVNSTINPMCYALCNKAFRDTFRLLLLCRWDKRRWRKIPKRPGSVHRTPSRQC
Assay: Alphascreen Surefire phospho-ERK1/2 functional assay, M1
Type: cell-based
Details: CHO, read-out: % Emax cf. ACh, M1, CHO cells stably expressing human M1; relative to ACh
Response field class: enum, chosen by comparing Emax against lower segment: < 40%; middle segment: ≥ 40% and < 80%; upper segment: ≥ 80%

{"columns": ["molecule", "tested_target", "class_assignment"],
 "data": [
  ["CCOC(=O)N1CCC2(CC(N3CCC([C@@H]4CCCN4C(=O)NCC(F)(F)F)CC3)C2)C1 (single isomer, unassigned) [2-26 Isomer 2]", "UniProtKB P11229", "upper segment"],
  ["CCOC(=O)N1CCC2(CC(N3CCC(C4C(=O)NCCC4C)CC3)C2)C1 (single isomer, unassigned) [4-3 Isomer 2]", "UniProtKB P11229", "upper segment"],
  ["CCOC(=O)N1CCC2(CC(N3CCC([C@@H]4CCCN4C(=O)NC4CC(F)(F)C4)CC3)C2)C1 (single isomer, unassigned) [2-38 Isomer 2]", "UniProtKB P11229", "upper segment"],
  ["CCOC(=O)N1CCC2(CC(N3CCC(N4CCC[C@@H]4C(F)(F)F)CC3)C2)C1 (single isomer, unassigned) [2-104 Isomer 2]", "UniProtKB P11229", "upper segment"],
  ["COC(=O)N1CCC2(CC(N3CCC(C4CCCN4C(=O)OC)CC3)C2)C1 (single isomer, unassigned) [2-10 Isomer 2]", "UniProtKB P11229", "lower segment"],
  ["CCOC(=O)N1CCC2(CC(N3CCC([C@@H]4CCCN4C(=O)NC(C)C)CC3)C2)C1 (single isomer, unassigned) [2-25 Isomer 2]", "UniProtKB P11229", "middle segment"],
  ["COC(=O)N1CCC2(CC(N3CCC([C@@H]4CCCN4C(=O)N4CC(F)(F)C4)CC3)C2)C1 (single isomer, unassigned) [2-41 Isomer 2]", "UniProtKB P11229", "lower segment"],
  ["CCOC(=O)N1CCC2(CC(N3CCC([C@@H]4CCCN4Cc4ccccc4)CC3)C2)C1 (single isomer, unassigned) [2-74 Isomer 2]", "UniProtKB P11229", "lower segment"],
  ["COC(=O)N1CCC2(CC(N3CCC(c4ncc(Cl)n4C)CC3)C2)C1 (single isomer, unassigned) [1-13 Isomer 2]", "UniProtKB P11229", "middle segment"],
  ["CCOC(=O)N1CCC2(CC(N3CCC(N4CC[C@H](F)C4)CC3)C2)C1 (single isomer, unassigned) [2-99 Isomer 2]", "UniProtKB P11229", "lower segment"],
  ["CCOC(=O)N1CCC2(CC(N3CCC(C4CCCN4C(=O)CNC)CC3)C2)C1 (single isomer, unassigned) [2-23 Isomer 2]", "UniProtKB P11229", "middle segment"],
  ["CCOC(=O)N1CCC2(CC(N3CCC(C4CCCN4C(=O)N(C)C)CC3)C2)C1 (single isomer, unassigned) [2-20 Isomer 2]", "UniProtKB P11229", "lower segment"]
]}

Cited source: patent US9926297B2
